- study.system: T1, human β-klotho (human, UniProt Q86Z14 1-1044)
- T1 sequence (looked up): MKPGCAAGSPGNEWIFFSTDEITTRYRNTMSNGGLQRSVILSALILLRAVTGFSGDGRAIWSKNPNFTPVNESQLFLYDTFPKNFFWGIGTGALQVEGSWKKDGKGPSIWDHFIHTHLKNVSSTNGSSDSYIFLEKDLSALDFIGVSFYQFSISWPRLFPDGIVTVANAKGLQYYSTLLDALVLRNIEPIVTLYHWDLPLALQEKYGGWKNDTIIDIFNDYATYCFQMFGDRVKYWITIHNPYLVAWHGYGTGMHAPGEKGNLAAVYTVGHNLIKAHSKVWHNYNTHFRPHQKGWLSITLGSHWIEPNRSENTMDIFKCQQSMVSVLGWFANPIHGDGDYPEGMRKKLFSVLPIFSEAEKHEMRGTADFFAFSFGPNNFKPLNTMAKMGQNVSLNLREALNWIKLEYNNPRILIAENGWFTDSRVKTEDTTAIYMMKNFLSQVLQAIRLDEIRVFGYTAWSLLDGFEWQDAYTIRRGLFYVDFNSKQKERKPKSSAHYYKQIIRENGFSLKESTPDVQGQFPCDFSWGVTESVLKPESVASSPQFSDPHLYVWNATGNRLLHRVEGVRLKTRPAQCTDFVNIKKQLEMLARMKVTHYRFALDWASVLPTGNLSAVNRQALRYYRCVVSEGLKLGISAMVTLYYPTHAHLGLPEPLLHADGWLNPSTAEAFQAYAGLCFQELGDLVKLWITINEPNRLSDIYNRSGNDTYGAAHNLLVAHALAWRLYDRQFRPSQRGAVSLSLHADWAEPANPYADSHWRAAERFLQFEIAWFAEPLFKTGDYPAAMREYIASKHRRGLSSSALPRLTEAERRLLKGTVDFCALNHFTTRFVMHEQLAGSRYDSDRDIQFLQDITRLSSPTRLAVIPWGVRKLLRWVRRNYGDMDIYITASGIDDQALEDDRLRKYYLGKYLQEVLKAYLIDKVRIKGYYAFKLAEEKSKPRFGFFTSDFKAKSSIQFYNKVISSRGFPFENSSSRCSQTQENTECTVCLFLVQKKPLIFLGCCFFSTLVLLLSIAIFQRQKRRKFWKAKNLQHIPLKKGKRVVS
- run.description: cell-based or functional assay
Lab note: compare EC50 (nM), pERK In Cell Western with 9 nM, writing Met if less and Not met if equal or more.

{"binder": "hFGF21(33-209)-V14-R154C, L174P (ligand) DSSPLLQFGGQVRQRYLYTDDAQETEAHLEIREDGTVGGAAHQSPESLLELKALKPGVIQILGVKTSRFLCQKPDGALYGSLHFDPEACSFRELLLENGYNVYQSEAHGLPLHLPGNRSPHCDPAPQGPARFLPLPGLPPAPPEPPGILAPQPPDVGSSDPLAMVGPSQGRSPSYAS", "assigned.class": "Met"}
{"binder": "hFGF21(33-209)-V76 (ligand) DSSPLLQFGGQVRQRYLYTDDAQETEAHLEIREDGTVGGAAHQSPESLLELKALKPGVIQILGVKTSRFLCQKPDGALYGSLHFDPEACSFRELLLEDGYNVYQSEAHGLPLHLPGNRSPHCDPAPQGPARFLPLPGLPPALPEPPGILAPQPPDVGSSDPLAMVGPSQGRSPSYAS", "assigned.class": "Met"}
{"binder": "hFGF21(33-209)-WT-R154C (ligand) DSSPLLQFGGQVRQRYLYTDDAQQTEAHLEIREDGTVGGAADQSPESLLQLKALKPGVIQILGVKTSRFLCQRPDGALYGSLHFDPEACSFRELLLEDGYNVYQSEAHGLPLHLPGNKSPHCDPAPRGPARFLPLPGLPPALPEPPGILAPQPPDVGSSDPLSMVGPSQGRSPSYAS", "assigned.class": "Met"}
{"binder": "hFGF21(33-209)-V8 (ligand) DSSPLLQFGGQVRQRYLYTDDAQETEAHLEIREDGTVGGAAHQSPESLLQLKALKPGVIQILGVQTSRFLCQKPDGALYGSLHFDPEACSFRELLLENGYNVYQSETHGLPLHLPGNKSPHRDPASQGPARFLPLPGLPPALPEPPGILAPQPPDVGSSDPLAMVGPSQARSPSYAS", "assigned.class": "Not met"}
{"binder": "hFGF21(33-209)-V9 (ligand) DSSPLLQFGGQVRQRYLYTDDDQQTEAHLEIREDGTVGGAAHQSPESLLQLKALKPGVIQILGVKASRFLCQKPDGALYGSLHFDPEACSFRELLLENGYNVYQSETHGLPLHLPGNKSPHRDPASQGPARFLPLPGLPPALPEPPGILAPQPPDVGSSDPLAMVGPSQARSPSYAS", "assigned.class": "Not met"}
{"binder": "hFGF21(33-209)-V15 (ligand) DSSPLLQFGGQVRQRYLYTDDAQETEAHLEIREDGTVGGAAHQSPESLLQLKALKPGVIQILGVQTSRFLCQKPDGALYGSLHFDPEACSFRELLLENGYNVYQSEAHGLPLHLPGNRSPHRDPAPQGPARFLPLPGLPPALPEPPGILAPQPPDVGSSDPLAMVGPSQGRSPSYAS", "assigned.class": "Met"}
{"binder": "hFGF21(33-209)-V16 (ligand) DSSPLLQFGGQVRQRYLYTDDAQETEAHLEIREDGTVGGAAHQSPESLLQLKALKPGVIQILGVKASRFLCQKPDGALYGSLHFDPEACSFRELLLENGYNVYQSEAHGLPLHLPGNRSPHRDPAPQGPARFLPLPGLPPALPEPPGILAPQPPDVGSSDPLAMVGPSQGRSPSYAS", "assigned.class": "Not met"}
{"binder": "hFGF21(33-209)-V76-154C-40 kDa-bPEG-MA (ligand, 40 kDa branched maleimido-PEG on Cys 154 (numbered on SEQ ID NO:1)) DSSPLLQFGGQVRQRYLYTDDAQETEAHLEIREDGTVGGAAHQSPESLLELKALKPGVIQILGVKTSRFLCQKPDGALYGSLHFDPEACSFRELLLEDGYNVYQSEAHGLPLHLPGNRSPHCDPAPQGPARFLPLPGLPPALPEPPGILAPQPPDVGSSDPLAMVGPSQGRSPSYAS", "assigned.class": "Met"}
{"binder": "hFGF21(33-209)-V60 (ligand) DSSPLLQFGGQVRQRYLYTDDACQTEAHLEIREDGTVGGAAHQSPESLLELKALKPGVIQILGVKTSRFLCQRPDGTLYGSLHFDPEACSFRELLLENGYNVYQSEAHGLPLHLPCNRSPHRDPASRGPARFLPLPGLPPAPPEPPGILAPQPPDVGSSDPLAMVGPSQGRSPSYAS", "assigned.class": "Met"}
{"binder": "hFGF21(33-209)-V73-N-40 kDa bPEG-AL (ligand, 40 kDa branched PEG (aldehyde reagent) on the N-terminal amine) DSSPLLQFGGQVRQRYLYTDDAQETEAHLEIREDGTVGGAAHQSPESLLELKALKPGVIQILGVKTSRFLCQKPDGALYGSLHFDPEACSFRELLLEEGYNVYQSEAHGLPLHLPGNRSPHRDPAPQGPARFLPLPGLPPALPEPPGILAPQPPDVGSSDPLAMVGPSQGRSPSYAS", "assigned.class": "Not met"}
{"binder": "hFGF21(33-209)-V14-L174P, R154C-40 kDa bPEG-MA (ligand, 40 kDa branched maleimido-PEG on Cys 154 (numbered on SEQ ID NO:1)) DSSPLLQFGGQVRQRYLYTDDAQETEAHLEIREDGTVGGAAHQSPESLLELKALKPGVIQILGVKTSRFLCQKPDGALYGSLHFDPEACSFRELLLENGYNVYQSEAHGLPLHLPGNRSPHCDPAPQGPARFLPLPGLPPAPPEPPGILAPQPPDVGSSDPLAMVGPSQGRSPSYAS", "assigned.class": "Not met"}
